Data provenance: PubChem BioAssay

Give measured composite z-score for each item. Keep answers brief.
- procedure text: small-molecule microarray binders of probe aLefty2, primary screen, biochemical, biotinylated probe, 635/667 nm fluorescence (AID 1094);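 note: score merges spot fluorescence near 667 nm with spot signal-to-noise ratio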
- study conditions: higher = more signal
Answers are plain numbers.

Here are 6 compounds. What values of composite z-score were reported for them?
1. CO[C@@H]1COC(=O)[C@@H]2CCCN2C(=O)[C@@H](C)COC(=O)CCC[C@H]1C
2. O=C1[C@H]2[C@H]3[C@H](O)[C@H](O)CC(=NO[C@@H]4O[C@H](CO)[C@@H](O)[C@H](O)[C@H]4O)[C@@H]3CC[C@H]2C(=O)N1C1CCCCC1
3. CC[C@@H](c1ccccc1)n1c(=O)n2n(c1=O)[C@H]1[C@H](O)[C@@H]3O[C@@H]3C(=NOCc3ccccc3)[C@H]1CC2
4. CC(C)[C@@H](OCc1ccccc1)[C@H](C)C=NO[C@H](C)c1cn([C@@H]2COC[C@H]2O)nn1
5. CC(C)CON=C1C[C@@H](O)[C@@H](O)[C@@H]2[C@@H]3C(=O)N(C(C)(C)C)C(=O)[C@@H]3CC[C@@H]12
6. CC(CCN1CCCc2nc(C)c(C)cc21)=NO[C@H](C)c1cn([C@@H]2COC[C@H]2O)nn1

[-0.176, -0.174, -0.132, -0.162, -0.317, 0.13]

Here are 2 compounds. What values of composite z-score were reported for them?
1. CC(CCC(=O)OC[C@H]1O[C@H](C#Cc2ccccc2)C=C[C@@H]1Oc1ccc(C)cc1)=NOC(C)CN1CCCCc2nc(C)c(C)cc21 (stereo partly specified)
2. O=C1C2=CC[C@H]3C(=O)N(C[C@@H]4CCCO4)C(=O)[C@H]3[C@H]2[C@H](O)[C@@H]2O[C@H]12

[-0.0454, -0.126]

Here are 3 compounds. What values of composite z-score were reported for them?
1. C[C@@H]1CC[C@@H](C(=O)O)N[C@H]1c1cccc(N2CCOCC2)c1
2. CC(=O)OC[C@H]1O[C@H](CC=NOC(C)CN2CCCc3nc(C)c(C)cc32)C=C[C@@H]1OC(C)=O (stereo partly specified)
3. CCOC(=O)[C@H](Cc1ccccc1)NC(=O)CCC1CC(OC(=O)NCCc2ccc(F)cc2)CC2(CCCC(COC(=O)NCCOc3ccccc3)O2)O1 (stereo partly specified)

[-0.106, 0.0961, -0.0907]

---

- procedure text: modulators of HCV replicon luciferase signal, primary screen, HCV replication inhibitor project, Huh7 cells, luciferase reporter (AID 1109);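 note: huh7 hepatoma cells harbouring a luciferase neomycin HCV replicon reporter; luciferase luminescence as measure of HCV replicon replication; test concentration not given here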
- study conditions: 48 h, higher = more signal
readout name: z-score
Numbers only.

# count of solved cases: 2
[[record]]
molecule = "COC(=O)C1=C(C)N(Cc2ccccc2)C2=C3C(=O)OCC[C@@H]3[C@@](O)(C(=O)OC)C(=O)N2[C@@H]1c1ccccc1"
measured_number = 0.935

[[record]]
molecule = "CCOC(=O)[C@H](CC(C)C)NC(=O)CCC1CC(OC(=O)NCc2ccc3c(c2)OCO3)CC2(CCCC(COC(=O)NCCOc3ccccc3)O2)O1 (stereo partly drawn)"
measured_number = -1.07


// moving on: another record for z-score
Recorded z-score for `C=CC[C@@H]1C=C[C@H](Oc2ccc(C)cc2)[C@@H](COC(=O)NCc2cccc3ccccc23)O1` , please? -2.78

---

- subject of test: Streptavidin (Streptomyces avidinii) (UniProt P22629)
- Sequence (P22629 whole entry, looked up): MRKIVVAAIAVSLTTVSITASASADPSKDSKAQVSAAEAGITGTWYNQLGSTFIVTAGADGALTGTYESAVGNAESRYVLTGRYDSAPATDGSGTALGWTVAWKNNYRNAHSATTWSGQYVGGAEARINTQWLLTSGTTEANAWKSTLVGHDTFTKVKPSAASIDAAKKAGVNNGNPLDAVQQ
- procedure text: streptavidin binders on small-molecule microarray, primary screen, artefact control for SMM compound annotation, biophysical, 635/667 nm fluorescence (AID 1147);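 note: signal reflects streptavidin binding to arrayed compounds as a control protein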
- study conditions: streptavidin binding, higher = more signal
So basically: composite z-score at 0.5 or higher? That is met. Lower than 0.5? That is not met.

[[record]]
molecule = "CC(CCC(=O)OC[C@H]1O[C@H](C#Cc2ccccc2)C=C[C@@H]1Oc1ccc(C)cc1)=NO[C@@H](C)c1cc(-c2c(C)cc(C)cc2C)no1"
subject_of_test = "Streptavidin (Streptomyces avidinii) (UniProt P22629)"
cat = "not met"

[[record]]
molecule = "CCOC(=O)CCN1C(=O)[C@H]2[C@H]3[C@H](O)[C@H](O)CC(=NO[C@@H]4O[C@H](CO)[C@@H](O)[C@H](O)[C@H]4O)[C@H]3CC[C@H]2C1=O"
subject_of_test = "Streptavidin (Streptomyces avidinii) (UniProt P22629)"
cat = "not met"

[[record]]
molecule = "CO[C@H]1COC(=O)[C@H](CCSC)NC(=O)CC=C[C@@H](C)[C@H](OC)COC(=O)[C@@H](OCc2ccccc2)C=C[C@@H]1C"
subject_of_test = "Streptavidin (Streptomyces avidinii) (UniProt P22629)"
cat = "not met"

[[record]]
molecule = "COC(=O)[C@H](C)NC(=O)CCC1CC(OC(=O)NCc2cccc3ccccc23)CC2(CCCC(COC(=O)NCCOc3ccccc3)O2)O1 (stereo partly specified)"
subject_of_test = "Streptavidin (Streptomyces avidinii) (UniProt P22629)"
cat = "met"

[[record]]
molecule = "CC(CCN1CCCc2nc(C)c(C)cc21)=NO[C@@H](C)c1cn([C@H](CO)Cc2ccccc2)nn1"
subject_of_test = "Streptavidin (Streptomyces avidinii) (UniProt P22629)"
cat = "met"

[[record]]
molecule = "COC(=O)[C@H](C)NC(=O)CCC1CC(OC(=O)NCc2ccc3c(c2)OCO3)CC2(CCCC(COC(=O)NCCCN3CCCC3=O)O2)O1 (stereo partly specified)"
subject_of_test = "Streptavidin (Streptomyces avidinii) (UniProt P22629)"
cat = "met"


Does composite z-score meet or surpass 0.5 for `CCc1cc2c(nc1CC)CCN(CCC(C)=NO[C@@H]1O[C@H](COC(C)=O)[C@@H](OC(C)=O)[C@H](OC(C)=O)[C@H]1OC(C)=O)C2` ? met

What would you report for `CC(CCC(=O)OC[C@H]1O[C@H](C#Cc2ccccc2)C=C[C@@H]1Oc1ccc(C)cc1)=NO[C@H](C)c1cn([C@@H]2COC[C@H]2O)nn1` ? not met

What would you report for `CCOC(=O)CCN1C(=O)[C@H]2[C@H]3[C@H](O)[C@H](O)CC(=NOCC(C)C)[C@@H]3CC[C@H]2C1=O` ? not met

What would you report for `CC(C)(C)N1C(=O)[C@H]2[C@@H]3C(=CC[C@H]2C1=O)C(=O)[C@H]1O[C@H]1[C@H]3O` ? not met

What would you report for `COc1ccc(COC(=O)NN=C2C[C@@H](O)[C@@H](O)[C@@H]3[C@@H]4C(=O)N([C@@H](C)c5ccccc5)C(=O)[C@@H]4CC[C@@H]23)cc1` ? not met

---

- System: Neuregulin-1 EGF-like domain
- procedure text: binders of neuregulin-1 EGF-like domain, primary screen, biochemical, small-molecule microarray, 635 nm fluorescence (AID 1081);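 note: binding of the protein to compounds printed on small-molecule microarray slides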
- study conditions: small-molecule microarray binding, higher = more signal
readout name: composite z-score
Answers are plain numbers.

[[record]]
molecule = "CCOC(=O)CCN1C(=O)[C@H]2[C@H]3[C@H](O)[C@H](O)CC(=NO[C@@H]4O[C@H](CO)[C@@H](O)[C@H](O)[C@H]4O)[C@@H]3CC[C@H]2C1=O"
subject_of_test = "Neuregulin-1 EGF-like domain"
measured_number = 1.14

[[record]]
molecule = "CC(=O)OC[C@H]1O[C@H](CC=NOC(C)CN2CCCCc3nc(C)c(C)cc32)C=C[C@@H]1OC(C)=O (stereo not given in full)"
subject_of_test = "Neuregulin-1 EGF-like domain"
measured_number = 0.978

[[record]]
molecule = "CCC1=NOC(CCC2CC(OC(=O)NCc3cccc4c3OCO4)CC3(CCCC(COC(=O)NCCc4ccc(Cl)cc4)O3)O2)C1 (stereo not given)"
subject_of_test = "Neuregulin-1 EGF-like domain"
measured_number = 1.12

[[record]]
molecule = "C[C@@H]1CC[C@H]2C(=O)O[C@@H](CN=[N+]=[N-])CN2[C@H]1c1ccc(Br)cc1"
subject_of_test = "Neuregulin-1 EGF-like domain"
measured_number = 0.786

[[record]]
molecule = "COc1ccc(OC[C@@H]2CC3[C@@H](c4ccc(Br)cc4)[C@H](C)CC[C@H]3C(=O)O2)cc1 (stereo not given in full)"
subject_of_test = "Neuregulin-1 EGF-like domain"
measured_number = -0.216

[[record]]
molecule = "CC(CCN1CCc2nc(-c3ccccc3)c(-c3ccccc3)cc2C1)=NO[C@@H](C)c1cc(-c2c(C)cc(C)cc2C)no1"
subject_of_test = "Neuregulin-1 EGF-like domain"
measured_number = 0.55


Here are 3 molecules. What values of composite z-score were reported for them?
1. COC(=O)[C@@H]1CC[C@H](C)[C@@H](c2ccc(Br)cc2)N1C[C@@H](O)CN=[N+]=[N-]
2. CN1CCc2nc(-c3ccccc3)c(-c3ccccc3)cc2C1
3. CCOC(=O)[C@H](Cc1ccccc1)NC(=O)CCC1CC(OC(=O)NCc2cccc3ccccc23)CC2(CCCC(COC(=O)NCCOc3ccccc3)O2)O1 (stereo not given in full)

-0.0109
-0.326
0.898
